# experimental.target: Avi-KRAS G12D (1-169) GppNHp/RAF1 RBD-3xFLAG (52-151) (Homo sapiens, UniProt P01116, G12D)
# Construct: 100 nM Avi-KRAS G12D (1-169) GppNHp
# Sequence (P01116 1-169 isoform P01116-2 G12D): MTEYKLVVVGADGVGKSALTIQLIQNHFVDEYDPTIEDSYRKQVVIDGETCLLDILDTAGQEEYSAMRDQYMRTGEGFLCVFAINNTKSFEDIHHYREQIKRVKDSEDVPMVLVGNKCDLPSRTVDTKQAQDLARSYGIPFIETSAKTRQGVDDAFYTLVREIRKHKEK
# assay.protocol: RAS-effector PPI HTRF disruption assay, Raf1-GppNHp-KRAS G12D
readout: IC50

N#Cc1c(N)sc2c(F)ccc(-c3cc4nc(OC[C@@]56CCCN5C[C@H](F)C6)nc(O[C@H]5CNC[C@H]5F)c4cc3C(F)(F)F)c12
100 to 1000 nM
C[C@H]1NCC[C@H]1Oc1nc(OC[C@@]23CCCN2C[C@H](F)C3)nc2c(F)c(-c3ccc(F)c4sc(N)c(C#N)c34)c(C(F)(F)F)cc12 [Compound 47]
≤ 100 nM
N#Cc1c(N)sc2c(F)ccc(-c3c(Cl)cc4c(O[C@H]5CCN[C@@H]5CO)nc(OC[C@@]56CCCN5C[C@H](F)C6)nc4c3F)c12 (atropisomer, axis not shown) [Compound 75]
> 10000 nM
C[C@@H]1C[C@@H](Oc2nc(OC[C@@]34CCCN3C[C@H](F)C4)nc3cc(-c4ccc(F)c5sc(N)c(C#N)c45)c(C(F)(F)F)nc23)CN1 [Compound 94]
1000 to 10000 nM
N#Cc1c(N)sc2c(F)ccc(-c3ncc4c(O[C@H]5CNC[C@H]5F)nc(OC[C@@]56CCCN5C[C@H](F)C6)nc4c3F)c12
1000 to 10000 nM
CC1(C)NCCC1Oc1nc(OC[C@@]23CCCN2C[C@H](F)C3)nc2c(F)c(-c3ccc(F)c4sc(N)c(C#N)c34)c(C(F)(F)F)cc12 (some centres unmarked)
100 to 1000 nM
N#Cc1c(N)sc2c(F)ccc(-c3c(C(F)(F)F)cc4c(O[C@@H]5CCC6(CNC6)C5)nc(OC[C@@]56CCCN5C[C@H](F)C6)nc4c3F)c12 (atropisomer, axis not shown)
≤ 100 nM
N#Cc1c(N)sc2c(F)ccc(-c3c(Cl)cc4c(O[C@@H]5CNC[C@@H]5F)nc(OC[C@@]56CCCN5C[C@H](F)C6)nc4c3F)c12
100 to 1000 nM
COC[C@@H]1C[C@@H](Oc2nc(OC[C@@]34CCCN3C[C@H](F)C4)nc3c(F)c(-c4ccc(F)c5sc(N)c(C#N)c45)c(C(F)(F)F)cc23)CN1 (atropisomer, axis not shown)
≤ 100 nM
Nc1nc2c(-c3c(C(F)(F)F)cc4c(O[C@@H]5CCNC5)nc(OC[C@@]56CCCN5C[C@H](F)C6)nc4c3Cl)ccc(F)c2s1 (atropisomer, axis not shown) [Compound 10]
100 to 1000 nM
N#Cc1c(N)sc2c(F)ccc(-c3ncc4c(O[C@@H]5CCNC5)nc(OC[C@@]56CCCN5C[C@H](F)C6)nc4c3F)c12
1000 to 10000 nM
